The reported numbers originate from PubChem BioAssay AID2060359.

Test system: 276233-004-R-J1-PDC spheroids with HUVEC/MSC, viability
testSummary: Anticancer human tumor 276233-004-R-J1-PDC patient-derived colon adenocarcinoma cell line growth inhibition [TAK]
assayConditions: second compound 30 µM; first compound 0.01 µM; hits give low values
reportedProperty: viability, T/C

Examples with answers:
compound | targetOrSystem | viability, T/C
CC(C)n1nc(-c2ccc3oc(N)nc3c2)c2c(N)ncnc21 + CC(C)NCC(C(=O)N1CCN(c2ncnc3c2C(C)CC3O)CC1)c1ccc(Cl)cc1 | 276233-004-R-J1-PDC spheroids with HUVEC/MSC, viability | 64.5%
CC(C)CC(NC(=O)C(Cc1ccccc1)NC(=O)c1cnccn1)B(O)O (stereo not given) + CC(C)NCC(C(=O)N1CCN(c2ncnc3c2C(C)CC3O)CC1)c1ccc(Cl)cc1 | 276233-004-R-J1-PDC spheroids with HUVEC/MSC, viability | 20.5%
CC(C)CC(NC(=O)CNC(=O)c1cc(Cl)ccc1Cl)B1OC(=O)CC(CC(=O)O)(C(=O)O)O1 (stereo not given) + CC(C)NCC(C(=O)N1CCN(c2ncnc3c2C(C)CC3O)CC1)c1ccc(Cl)cc1 | 276233-004-R-J1-PDC spheroids with HUVEC/MSC, viability | 63.7%
COC1CC2CCC(C)C(O)(O2)C(=O)C(=O)N2CCCCC2C(=O)OC(C(C)CC2CCC(OCCO)C(OC)C2)CC(=O)C(C)C=C(C)C(O)C(OC)C(=O)C(C)CC(C)C=CC=CC=C1C (stereo not given) + CC(C)NCC(C(=O)N1CCN(c2ncnc3c2C(C)CC3O)CC1)c1ccc(Cl)cc1 | 276233-004-R-J1-PDC spheroids with HUVEC/MSC, viability | 54.2%

Measured on 276233-004-R-J1-PDC spheroids with HUVEC/MSC, viability, COc1c(OCCCN2CCOCC2)ccc2c3n(c(=NC(=O)c4cnc(N)nc4)nc12)CCN3 + CC(C)NCC(C(=O)N1CCN(c2ncnc3c2C(C)CC3O)CC1)c1ccc(Cl)cc1 has a documented viability, T/C of 34.5%

====

Test system: 276233-004-R-J1-PDC spheroids with HUVEC/MSC, viability
testSummary: Anticancer human tumor 276233-004-R-J1-PDC cell line growth inhibition [TAK];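 further: spheroids exposed to drugs for seven days before the viability read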
assayConditions: second compound 0.3 µM; first compound 0.00316 µM; hits give low values
reportedProperty: viability, T/C (%)
Use % as the unit, but write only the number.

response.value for COC1CC2CCC(C)C(O)(O2)C(=O)C(=O)N2CCCCC2C(=O)OC(C(C)CC2CCC(OCCO)C(OC)C2)CC(=O)C(C)C=C(C)C(O)C(OC)C(=O)C(C)CC(C)C=CC=CC=C1C (stereo not given) + CC(C)NCC(C(=O)N1CCN(c2ncnc3c2C(C)CC3O)CC1)c1ccc(Cl)cc1 (field: viability, T/C) = 75.9

viability, T/C reading for CC(C)CC(NC(=O)CNC(=O)c1cc(Cl)ccc1Cl)B1OC(=O)CC(CC(=O)O)(C(=O)O)O1 (stereo not given) + CC(C)NCC(C(=O)N1CCN(c2ncnc3c2C(C)CC3O)CC1)c1ccc(Cl)cc1 : 102

====

System: 276233-004-R-J1-PDC spheroids with HUVEC/MSC, viability
testSummary: Anticancer human tumor 276233-004-R-J1-PDC cell line growth inhibition [TAK];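 further: spheroids exposed to drugs for seven days before the viability read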
assayConditions: second compound 9.49 µM; first compound 0.001 µM; hits give low values
reportedProperty: viability, T/C

Example compounds with recorded viability, T/C:
compound | viability, T/C
CC(C)n1nc(-c2ccc3oc(N)nc3c2)c2c(N)ncnc21 + CC(C)NCC(C(=O)N1CCN(c2ncnc3c2C(C)CC3O)CC1)c1ccc(Cl)cc1 | 77.1%
COC1CC2CCC(C)C(O)(O2)C(=O)C(=O)N2CCCCC2C(=O)OC(C(C)CC2CCC(OCCO)C(OC)C2)CC(=O)C(C)C=C(C)C(O)C(OC)C(=O)C(C)CC(C)C=CC=CC=C1C (centres undefined) + CC(C)NCC(C(=O)N1CCN(c2ncnc3c2C(C)CC3O)CC1)c1ccc(Cl)cc1 | 57.3%
CC(C)CC(NC(=O)CNC(=O)c1cc(Cl)ccc1Cl)B1OC(=O)CC(CC(=O)O)(C(=O)O)O1 (centres undefined) + CC(C)NCC(C(=O)N1CCN(c2ncnc3c2C(C)CC3O)CC1)c1ccc(Cl)cc1 | 84.8%

Moving on to the next compound.
In plain terms, CC(C)CC(NC(=O)C(Cc1ccccc1)NC(=O)c1cnccn1)B(O)O (centres undefined) + CC(C)NCC(C(=O)N1CCN(c2ncnc3c2C(C)CC3O)CC1)c1ccc(Cl)cc1 has a documented viability, T/C of 66%

====

System: 276233-004-R-J1-PDC spheroids with HUVEC/MSC, viability
testSummary: Anticancer human tumor 276233-004-R-J1-PDC cell line growth inhibition [TAK];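 further: spheroids exposed to drugs for seven days before the viability read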
assayConditions: second compound 3 µM; first compound 1 µM; hits give low values
reportedProperty: viability, T/C (%)
Lab book: enter the figure in %, no units written.

Below are worked cases with known answers.
compound | viability, T/C [%]
CC(C)(C)c1nc(-c2cccc(NS(=O)(=O)c3c(F)cccc3F)c2F)c(-c2ccnc(N)n2)s1 + CC(C)NCC(C(=O)N1CCN(c2ncnc3c2C(C)CC3O)CC1)c1ccc(Cl)cc1 | 61.1
CCCS(=O)(=O)Nc1ccc(F)c(C(=O)c2c[nH]c3ncc(-c4ccc(Cl)cc4)cc23)c1F + CC(C)NCC(C(=O)N1CCN(c2ncnc3c2C(C)CC3O)CC1)c1ccc(Cl)cc1 | 77.3
Cc1nc(NC(=O)N2CCCC2C(N)=O)sc1-c1ccnc(C(C)(C)C(F)(F)F)c1 (centres undefined) + CC(C)NCC(C(=O)N1CCN(c2ncnc3c2C(C)CC3O)CC1)c1ccc(Cl)cc1 | 58

Shift focus to the following entry.
Here COc1c(OCCCN2CCOCC2)ccc2c3n(c(=NC(=O)c4cnc(N)nc4)nc12)CCN3 + CC(C)NCC(C(=O)N1CCN(c2ncnc3c2C(C)CC3O)CC1)c1ccc(Cl)cc1 was tested on 276233-004-R-J1-PDC spheroids with HUVEC/MSC, viability, and its viability, T/C came to 61.7

====

System: 276233-004-R-J1-PDC spheroids with HUVEC/MSC, viability
testSummary: Anticancer human tumor 276233-004-R-J1-PDC cell line growth inhibition [TAK];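 further: spheroids exposed to drugs for seven days before the viability read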
assayConditions: second compound 0.949 µM; first compound 0.0316 µM; hits give low values
Threshold-based label: viability, T/C under 70% gives label 1, viability, T/C not under 70% gives label 0.

Solved entries (count: 4):
compound | answerLabel
Cc1nc(NC(=O)N2CCCC2C(N)=O)sc1-c1ccnc(C(C)(C)C(F)(F)F)c1 (stereo unspecified) + CC(C)NCC(C(=O)N1CCN(c2ncnc3c2C(C)CC3O)CC1)c1ccc(Cl)cc1 | label 0
CC(C)n1nc(-c2ccc3oc(N)nc3c2)c2c(N)ncnc21 + CC(C)NCC(C(=O)N1CCN(c2ncnc3c2C(C)CC3O)CC1)c1ccc(Cl)cc1 | label 1
CC(C)(C)c1nc(-c2cccc(NS(=O)(=O)c3c(F)cccc3F)c2F)c(-c2ccnc(N)n2)s1 + CC(C)NCC(C(=O)N1CCN(c2ncnc3c2C(C)CC3O)CC1)c1ccc(Cl)cc1 | label 0
COc1c(OCCCN2CCOCC2)ccc2c3n(c(=NC(=O)c4cnc(N)nc4)nc12)CCN3 + CC(C)NCC(C(=O)N1CCN(c2ncnc3c2C(C)CC3O)CC1)c1ccc(Cl)cc1 | label 1

API: the following record is the query input.
Qu. Does the reported viability, T/C of the following compound sit strictly below 70%? CC(C)CC(NC(=O)CNC(=O)c1cc(Cl)ccc1Cl)B1OC(=O)CC(CC(=O)O)(C(=O)O)O1 (stereo unspecified) + CC(C)NCC(C(=O)N1CCN(c2ncnc3c2C(C)CC3O)CC1)c1ccc(Cl)cc1
Ans. label 0

====

System: 276233-004-R-J1-PDC spheroids with HUVEC/MSC, viability
testSummary: Anticancer human tumor 276233-004-R-J1-PDC cell line growth inhibition [TAK];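 further: spheroids exposed to drugs for seven days before the viability read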
assayConditions: second compound 30 µM; first compound 0.316 µM; hits give low values
Procedure: Combinatorial screen of targeted agents with TAK-243 and ipatasertib in multi-cell type tumor spheroids […] Compounds. […] If the clinical Cmax for an agent had not been determined, the highest concentration tested was 10 microM. NCI60 Cell Culture. […] The optimal seeding densities for each of the cell lines at each time point assessed were determined prior to performing the concentration response studies. […]
reportedProperty: viability, T/C (%)
Respond with the bare value in %.

Example compounds with recorded viability, T/C:
compound | unitsLabel | viability, T/C
CC(C)(C)c1nc(-c2cccc(NS(=O)(=O)c3c(F)cccc3F)c2F)c(-c2ccnc(N)n2)s1 + CC(C)NCC(C(=O)N1CCN(c2ncnc3c2C(C)CC3O)CC1)c1ccc(Cl)cc1 | % | 64.6
CCCS(=O)(=O)Nc1ccc(F)c(C(=O)c2c[nH]c3ncc(-c4ccc(Cl)cc4)cc23)c1F + CC(C)NCC(C(=O)N1CCN(c2ncnc3c2C(C)CC3O)CC1)c1ccc(Cl)cc1 | % | 68.4
COc1c(OCCCN2CCOCC2)ccc2c3n(c(=NC(=O)c4cnc(N)nc4)nc12)CCN3 + CC(C)NCC(C(=O)N1CCN(c2ncnc3c2C(C)CC3O)CC1)c1ccc(Cl)cc1 | % | 25.9

Lab note: measured viability, T/C of Cc1nc(NC(=O)N2CCCC2C(N)=O)sc1-c1ccnc(C(C)(C)C(F)(F)F)c1 (centres undefined) + CC(C)NCC(C(=O)N1CCN(c2ncnc3c2C(C)CC3O)CC1)c1ccc(Cl)cc1 was 34
